B1: HDV Ribozyme (parent)
chain: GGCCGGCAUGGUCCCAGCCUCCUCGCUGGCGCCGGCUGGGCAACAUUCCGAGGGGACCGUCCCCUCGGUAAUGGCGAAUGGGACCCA

variants of: B1; assay: self-cleavage, relative activity (ratio to wild type); higher = more cleavage; co-transcriptional
readout.name: self-cleavage
# respond with the number and nothing more

q: Report self-cleavage, nothing else, for this variant: G17U G35A
a: 0.133

q: Report self-cleavage, nothing else, for this variant: U60C G68A
a: 0.81

q: Report self-cleavage, nothing else, for this variant: G5C G40A
a: 0.208

Next:
q: Report self-cleavage, nothing else, for this variant: C24A G59U
a: 0.783
